The origin of these recorded values is paper PMC5540273.

- Test system: VPS34
- Construct: gene PIK3C3
- reported conditions: concentration: 1 μM, replicates: in singlicate; n = 1
measured quantity: %Inh (%)

1. COc1cccc(C2=C(Nc3cc(Cl)c(O)c(Cl)c3)C(=O)NC2=O)c1 [SB-390767]	0
2. CC(=O)c1c(C)c2cnc(Nc3ccc(N4CCNCC4)cn3)nc2n(C2CCCC2)c1=O	0
3. CC(=O)c1cccc(NC(=O)NC2CCN(c3ccnc(Nc4ccc(F)cc4)n3)C2)c1 (stereo not shown) [GSK1379710]	10
4. Cc1ccccc1Cn1ccn2c(=O)cc(N3CCOCC3)nc12 [GSK2269905]	88
5. COc1ccc(Nc2nccc(N3CCC(NC(=O)C(C)c4ccc(Cl)cc4)C3)n2)cc1 (stereo not shown) [GSK1379735]	15
6. c1ccc(-c2ccnc3[nH]ccc23)cc1 [SB-693578]	0
7. COC(=O)c1cccc(NC(=O)NC2CCN(c3ccnc(Nc4ccc(F)cc4)n3)C2)c1 (stereo not shown) [GSK1379725]	0
8. COC(=O)c1cccc(NC(=O)NC2CCN(c3ccnc(Nc4ccc(OC)cc4)n3)C2)c1 (stereo not shown) [GSK1379746]	0
9. CNc1nc(-c2ccc3c(N)n[nH]c3c2)cc(N2C[C@@H](C(=O)NC3CCCCC3)OC[C@H]2C)n1 [GSK2375584]	0
10. O=c1cc(N2CCOCC2)nc2n(Cc3cccc(Cl)c3Cl)c3ccccc3n12 [GSK2299009]	96.7
11. CCn1c(-c2ccccc2)nc2cnccc21 [SB-733416]	0
12. O=C1NC(=O)C(c2ccc(Cl)cc2)=C1Nc1cccc(Cl)c1 [SB-317651]	90.2
13. CCCCc1nn2ncccc2c1-c1ccnc(NC2CC2)n1 [GW684374]	0
14. CSc1ccc(-c2nc3n(c2-c2ccncc2)CCC3)cc1 [SKF-105561]	19
15. CC(=O)c1c(C)c2cnc(Nc3ccn(C)n3)nc2n(C2CCCC2)c1=O	3
16. Cc1ccc(NC(=O)Nc2ccccc2F)cc1-c1ccc(C(=O)Nc2ccncc2)cc1 [GSK1398477]	11
17. Cc1cccc2c(-c3ccncn3)c(-c3ccc(F)cc3)nn12 [GW515532]	30
18. O=C(Nc1n[nH]c2cc(-c3ccsc3)ccc12)C1CC1 [SB-732932]	27
19. Fc1ccc(-c2nn3cccc(F)c3c2-c2ccncc2)cc1 [GW475620]	15

* * *

- Test system: JNK2;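 note: kd values determined as follow-up on hits from a single-replicate KINOMEscan panel screen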
- Construct: gene MAPK9
Labelling: Kd reported below 200 nM becomes TRUE; at or above becomes FALSE.

1) Fc1ccc(-c2nc[nH]c2-c2ccncc2)cc1 [SB-217360]	TRUE
2) CNC(=O)c1ccc(C)c(-n2c(C)cc(OCc3ccc(F)cc3F)c(Br)c2=O)c1	FALSE
3) Fc1ccc(-c2nn3cccc(F)c3c2-c2ccncc2)cc1 [GW475620]	FALSE
4) CCCCc1nn2ncccc2c1-c1ccnc(NC2CC2)n1 [GW684374]	FALSE
5) Fc1ccc(-c2nc3n(c2-c2ccncc2)CCS3)cc1 [GI98581]	FALSE
6) Nc1nccc(-c2c(-c3ccc(F)cc3)ncn2C2CCN(Cc3ccccc3)CC2)n1 [SB-219980]	TRUE

* * *

- Tested on: GSK3A
- reported conditions: concentration: 1 μM, replicates: in singlicate; n = 1
measured quantity: %Inh (%)

1. Cc1c(Cn2c3ccccc3n3c(=O)cc(N4CCOCC4)nc23)cccc1C(F)(F)F	13
2. COc1cc2ncnc(Nc3cccc(Br)c3)c2cc1OC.Cl	0
3. Cc1ccc(NC(=O)Nc2ccccc2)cc1-c1ccc(C(=O)Nc2ccncc2)cc1	12
4. CC(=O)c1c(C)c2cnc(Nc3ccn(C)n3)nc2n(C2CCCC2)c1=O	12
5. Cc1ccc(-c2nc(Nc3ccncc3)c3ccccc3n2)s1	18
